Give composite z-score for every item shown.
METHOD: small-molecule microarray binders of probe aNog, primary screen, biochemical, biotinylated probe, 635/667 nm fluorescence (AID 1115);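 also: probe is biotinylated aNog protein used at 0.15 µg/mL for 1 h at 4 C; z-score combines 667 nm fluorescence of each spot with its signal to noise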
EXPERIMENTAL_CONDITIONS: higher = more signal

Would you kindly share the measured composite z-score for O=C(NCc1ccccc1)[C@@]1(Cc2ccccc2)COC(c2ccc(OCCCO)cc2)=N1 ?
0.597

composite z-score lookup needed for CC(=O)NCCCC[C@@H]1NC(=O)[C@H]2C[C@@H](C(=O)NCCCCCCN(C)C)[C@@H](c3ccc(O)cc3)N2C1=O , thanks.
0.512

Endpoint output: composite z-score of CCOC(=O)[C@H]1C/C=C/C[C@H](C(=O)OCC)C(=O)O[C@H]2[C@@H](OC)O[C@H](CO)[C@@H](OC(=O)Nc3ccc(Br)cc3)[C@@H]2OC1=O . Value?
1.5

// lookup composite z-score for COc1cc(CO)cc(I)c1O[C@H]1C=C(C(=O)NCCO)C[C@@H](N(CC2CCCCC2)C(=O)c2cc3ccccc3oc2=O)[C@@H]1O
-0.446

// returns reported composite z-score for input CC[C@H]1C2=C3C(CC[C@H]4C(OC)OC[C@](C)([C@@H]34)N(C(=O)OC(C)(C)C)C2)C(CO)C1CO (some centres not stated)
-0.128

// lookup composite z-score for CO[C@H]1COC(=O)[C@H](CCSC)NC(=O)CC=C[C@@H](C)COC(=O)[C@@H](OCc2ccccc2)C=C[C@@H]1C
-0.541

Returns the measured composite z-score for the input molecule. Input: C=C(CCCC)/C(=C/C[C@@H](OC(=O)c1ccncc1)c1ccc(CO)o1)c1cnc2ccccc2c1
0.889
